Origin of the recorded values: patent US5646028A

System: SGPC
Assay: Substrate specificity of SGPC with tetrapeptide substrates sAAPXpNA
Assay type: biochemical, Streptomyces griseus
Conditions: pH 8.0, 10% DMSO, 24° C.
*1 amine or outer side, *2 acyl side, *3 side chain or, on linkers, in order; H or OH if unused. Where a SMILES comes first, the peptide text is derived from it. The star is where a group is joined. pNA = O=[N+]([O-])c1ccc(N*)cc1; Suc = O=C(CCC(=O)[*:2])[*:1]
Here, each record is paired with measured kcat /Km data.

Consider the following illustrative entries.
compound	outcome.measure	measurement
C[C@H](NC(=O)CCC(=O)O)C(=O)N[C@@H](C)C(=O)N1CCC[C@H]1C(=O)N[C@@H](Cc1ccccc1)C(=O)Nc1ccc([N+](=O)[O-])cc1 [sAAPFpNA] (Suc-AAPF-pNA)	kcat /Km	137,600 M^-1 S^-1
C[C@H](NC(=O)CCC(=O)O)C(=O)N[C@@H](C)C(=O)N1CCC[C@H]1C(=O)N[C@@H](CO)C(=O)Nc1ccc([N+](=O)[O-])cc1 [sAAPSpNA] (Suc-AAPS-pNA)	kcat /Km	1,893 M^-1 S^-1

Qu. I'd like to know its kcat /Km. The compound in question is C[C@H](NC(=O)CCC(=O)O)C(=O)N[C@@H](C)C(=O)N1CCC[C@H]1C(=O)N[C@@H](CS)C(=O)Nc1ccc([N+](=O)[O-])cc1 [sAAPCpNA] (Suc-AAPC-pNA)
Ans. 14,380 M^-1 S^-1

Qu. Reported kcat /Km for C[C@H](NC(=O)CCC(=O)O)C(=O)N[C@@H](C)C(=O)N1CCC[C@H]1C(=O)N[C@H](C(=O)Nc1ccc([N+](=O)[O-])cc1)[C@@H](C)O [sAAPTpNA] (Suc-AAPT-pNA) : what is it?
Ans. 1,769 M^-1 S^-1

====

Catalogue of compounds with associated kcat
System: SGPC
Assay: Substrate specificity of SGPC with tetrapeptide substrates sAAPXpNA
Assay type: biochemical, Streptomyces griseus
Details: pH 8.0, 10% DMSO, 24° C.
Protocol: The enzyme was assayed with a series of tetrapeptide substrates which had the form succinyl-Ala-Ala-Pro-X-para-nitroanilide (sAAPXpNA) (SEQ ID NOS. 3-20), where X is the P1 amino acid (the residue found on the N-terminal side of the bond which is cleaved). Kinetics constants kcat and Km were determined by assaying an appropriate dilution of SGPC with eight different concentrations of each substrate. […]
*1 amine or outer side, *2 acyl side, *3 side chain or, on linkers, in order; H or OH if unused. Where a SMILES comes first, the peptide text is derived from it. The star is where a group is joined. pNA = O=[N+]([O-])c1ccc(N*)cc1; Suc = O=C(CCC(=O)[*:2])[*:1]
Give your result in S^-1 as a bare value.

compound	measurement
C[C@H](NC(=O)CCC(=O)O)C(=O)N[C@@H](C)C(=O)N1CCC[C@H]1C(=O)N[C@H](C(=O)Nc1ccc([N+](=O)[O-])cc1)[C@@H](C)O [sAAPTpNA] (Suc-AAPT-pNA)	7.69
C[C@H](NC(=O)CCC(=O)O)C(=O)N[C@@H](C)C(=O)N1CCC[C@H]1C(=O)N[C@@H](C)C(=O)Nc1ccc([N+](=O)[O-])cc1 [sAAPApNA] (Suc-AAPA-pNA)	36.1

Qu. Suppose we examine the compound C[C@H](NC(=O)CCC(=O)O)C(=O)N[C@@H](C)C(=O)N1CCC[C@H]1C(=O)N[C@@H](CCCNC(=N)N)C(=O)Nc1ccc([N+](=O)[O-])cc1 [sAAPRpNA] (Suc-AAPR-pNA) ; what kcat value has been reported?
Ans. 16.7

Qu. // lookup kcat for C[C@H](NC(=O)CCC(=O)O)C(=O)N[C@@H](C)C(=O)N1CCC[C@H]1C(=O)N[C@@H](CCCCN)C(=O)Nc1ccc([N+](=O)[O-])cc1 [sAAPKpNA] (Suc-AAPK-pNA)
Ans. 10.9

Qu. Entry CSCC[C@H](NC(=O)[C@@H]1CCCN1C(=O)[C@H](C)NC(=O)[C@H](C)NC(=O)CCC(=O)O)C(=O)Nc1ccc([N+](=O)[O-])cc1 [sAAPMpNA] (Suc-AAPM-pNA) : reported kcat = ?
Ans. 39.3

====

Test system: SGPC
Assay: Substrate specificity of SGPC with tetrapeptide substrates sAAPXpNA
Format: biochemical, Streptomyces griseus
Settings: pH 8.0, 10% DMSO, 24° C.
*1 amine or outer side, *2 acyl side, *3 side chain or, on linkers, in order; H or OH if unused. Where a SMILES comes first, the peptide text is derived from it. The star is where a group is joined. pNA = O=[N+]([O-])c1ccc(N*)cc1; Suc = O=C(CCC(=O)[*:2])[*:1]
outcome.measure: log10 of kcat (log10 of the value in S^-1)
Log10 applied to kcat; unit prior to transform: S^-1.

For orientation, consider the following solved cases.
compound	system.under.test	log10 of kcat
C[C@H](NC(=O)CCC(=O)O)C(=O)N[C@@H](C)C(=O)N1CCC[C@H]1C(=O)N[C@@H](Cc1ccccc1)C(=O)Nc1ccc([N+](=O)[O-])cc1 [sAAPFpNA] (Suc-AAPF-pNA)	SGPC	1.60
C[C@H](NC(=O)CCC(=O)O)C(=O)N[C@@H](C)C(=O)N1CCC[C@H]1C(=O)N[C@@H](Cc1cnc[nH]1)C(=O)Nc1ccc([N+](=O)[O-])cc1 [sAAPHpNA] (Suc-AAPH-pNA)	SGPC	1.38
C[C@H](NC(=O)CCC(=O)O)C(=O)N[C@@H](C)C(=O)N1CCC[C@H]1C(=O)N[C@@H](CS)C(=O)Nc1ccc([N+](=O)[O-])cc1 [sAAPCpNA] (Suc-AAPC-pNA)	SGPC	1.79

Qu. Any idea what log10 of kcat came out for CC(C)C[C@H](NC(=O)[C@@H]1CCCN1C(=O)[C@H](C)NC(=O)[C@H](C)NC(=O)CCC(=O)O)C(=O)Nc1ccc([N+](=O)[O-])cc1 [sAAPLpNA] (Suc-AAPL-pNA) on SGPC?
Ans. 1.39

Qu. # get_value(readout= log10 of kcat, system= SGPC) for C[C@H](NC(=O)CCC(=O)O)C(=O)N[C@@H](C)C(=O)N1CCC[C@H]1C(=O)N[C@@H](CCC(N)=O)C(=O)Nc1ccc([N+](=O)[O-])cc1 [sAAPQpNA] (Suc-AAPQ-pNA)
Ans. 1.56

Qu. Tell me reported log10 of kcat for C[C@H](NC(=O)CCC(=O)O)C(=O)N[C@@H](C)C(=O)N1CCC[C@H]1C(=O)N[C@@H](Cc1ccc(O)cc1)C(=O)Nc1ccc([N+](=O)[O-])cc1 [sAAPYpNA] (Suc-AAPY-pNA) , tested with SGPC.
Ans. 1.44

Qu. So what log10 of kcat did C[C@H](NC(=O)CCC(=O)O)C(=O)N[C@@H](C)C(=O)N1CCC[C@H]1C(=O)N[C@@H](CO)C(=O)Nc1ccc([N+](=O)[O-])cc1 [sAAPSpNA] (Suc-AAPS-pNA) get with SGPC?
Ans. 0.85

Qu. Please provide the recorded log10 of kcat for CC(C)[C@H](NC(=O)[C@@H]1CCCN1C(=O)[C@H](C)NC(=O)[C@H](C)NC(=O)CCC(=O)O)C(=O)Nc1ccc([N+](=O)[O-])cc1 [sAAPVpNA] (Suc-AAPV-pNA) , tested on SGPC.
Ans. -0.28

Qu. Give recorded log10 of kcat with SGPC for the following compound: C[C@H](NC(=O)CCC(=O)O)C(=O)N[C@@H](C)C(=O)N1CCC[C@H]1C(=O)N[C@@H](CC(=O)O)C(=O)Nc1ccc([N+](=O)[O-])cc1 [sAAPDpNA] (Suc-AAPD-pNA)
Ans. 0.84

Qu. Recorded log10 of kcat for C[C@H](NC(=O)CCC(=O)O)C(=O)N[C@@H](C)C(=O)N1CCC[C@H]1C(=O)N[C@@H](CC(N)=O)C(=O)Nc1ccc([N+](=O)[O-])cc1 [sAAPNpNA] (Suc-AAPN-pNA) with SGPC, please?
Ans. 1.55

====

Entries and their measured Km follow.
System: SGPC
Test: Substrate specificity of SGPC with tetrapeptide substrates sAAPXpNA
Type: biochemical, Streptomyces griseus
Settings: pH 8.0, 10% DMSO, 24° C.
Description: The enzyme was assayed with a series of tetrapeptide substrates which had the form succinyl-Ala-Ala-Pro-X-para-nitroanilide (sAAPXpNA) (SEQ ID NOS. 3-20), where X is the P1 amino acid (the residue found on the N-terminal side of the bond which is cleaved). Kinetics constants kcat and Km were determined by assaying an appropriate dilution of SGPC with eight different concentrations of each substrate. […]
*1 amine or outer side, *2 acyl side, *3 side chain or, on linkers, in order; H or OH if unused. Where a SMILES comes first, the peptide text is derived from it. The star is where a group is joined. pNA = O=[N+]([O-])c1ccc(N*)cc1; Suc = O=C(CCC(=O)[*:2])[*:1]
Just the number in mM, nothing appended.

Observe how each entry below is paired with its result.
molecule	Km [mM]
C[C@H](NC(=O)CCC(=O)O)C(=O)N[C@@H](C)C(=O)N1CCC[C@H]1C(=O)N[C@@H](CC(=O)O)C(=O)Nc1ccc([N+](=O)[O-])cc1 [sAAPDpNA] (Suc-AAPD-pNA)	19.6
C[C@H](NC(=O)CCC(=O)O)C(=O)N[C@@H](C)C(=O)N1CCC[C@H]1C(=O)N[C@@H](CCCCN)C(=O)Nc1ccc([N+](=O)[O-])cc1 [sAAPKpNA] (Suc-AAPK-pNA)	4.22
CC(C)[C@H](NC(=O)[C@@H]1CCCN1C(=O)[C@H](C)NC(=O)[C@H](C)NC(=O)CCC(=O)O)C(=O)Nc1ccc([N+](=O)[O-])cc1 [sAAPVpNA] (Suc-AAPV-pNA)	1.08
C[C@H](NC(=O)CCC(=O)O)C(=O)N[C@@H](C)C(=O)N1CCC[C@H]1C(=O)N[C@@H](C)C(=O)Nc1ccc([N+](=O)[O-])cc1 [sAAPApNA] (Suc-AAPA-pNA)	5.29

Now turn to the next molecule.
Qu. Which Km value is on record for C[C@H](NC(=O)CCC(=O)O)C(=O)N[C@@H](C)C(=O)N1CCC[C@H]1C(=O)N[C@@H](Cc1ccc(O)cc1)C(=O)Nc1ccc([N+](=O)[O-])cc1 [sAAPYpNA] (Suc-AAPY-pNA) ?
Ans. 0.49
